test: Approximate solubility of pomalidomide at 50°C in 96 solvent compositions (LC); format: physicochemical; details: binary solvent mixture (main solvent and co-solvent), 50 °C, organic solvent or mixture, thermodynamic from solid, solvent system F2 of Table 7, read-out: Approximate Measured Solubility
MEASURED ATTRIBUTE: solubility at 2 h (µg/mL)
Numbers only, in µg/mL.

Enquiry: Need solubility at 2 h of Nc1cccc2c1C(=O)N(C1CCC(=O)NC1=O)C2=O (stereo not shown) [Pomalidomide] , thanks.
Return: 60

* * *

experiment: Approximate solubility of pomalidomide at 50°C in 96 solvent compositions (LC); format: physicochemical; conditions: binary solvent mixture (main solvent and co-solvent), 50 °C, organic solvent or mixture, thermodynamic from solid, solvent system H3 of Table 7, read-out: Approximate Measured Solubility
MEASURED ATTRIBUTE: solubility at 2 h
I'd appreciate it if you wrote the number followed by its unit.

Enquiry: Need solubility at 2 h of Nc1cccc2c1C(=O)N(C1CCC(=O)NC1=O)C2=O (stereo not shown) [Pomalidomide] , thanks.
Return: 110 µg/mL

* * *

assay: Approximate solubility of pomalidomide at 50°C in 96 solvent compositions (LC); type: physicochemical; details: binary solvent mixture (main solvent and co-solvent), 50 °C, organic solvent or mixture, thermodynamic from solid, solvent system G11 of Table 7, read-out: Approximate Measured Solubility
MEASURED ATTRIBUTE: solubility at 2 h (µg/mL)
Give bare numbers, in µg/mL.

Enquiry: Need solubility at 2 h of Nc1cccc2c1C(=O)N(C1CCC(=O)NC1=O)C2=O (stereo not shown) [Pomalidomide] , thanks.
Return: 5180

* * *

test: Approximate solubility of pomalidomide at 50°C in 96 solvent compositions (LC); assay type: physicochemical; settings: binary solvent composition (main solvent and co-solvent), 50 °C, organic solvent or mixture, thermodynamic from solid, solvent system A6 of Table 7, read-out: Approximate Measured Solubility
MEASURED ATTRIBUTE: solubility at 2 h
I'd appreciate it if you wrote the number followed by its unit.

Enquiry: Need solubility at 2 h of Nc1cccc2c1C(=O)N(C1CCC(=O)NC1=O)C2=O (stereo not shown) [Pomalidomide] , thanks.
Return: 280 µg/mL

* * *

test: Approximate solubility of pomalidomide at 50°C in 96 solvent compositions (LC); format: physicochemical; settings: binary solvent mixture (main solvent and co-solvent), 50 °C, organic solvent or mixture, thermodynamic from solid, solvent system E4 of Table 7, read-out: Approximate Measured Solubility
MEASURED ATTRIBUTE: solubility at 2 h (µg/mL)
Answers are plain numbers, in µg/mL.

Enquiry: Need solubility at 2 h of Nc1cccc2c1C(=O)N(C1CCC(=O)NC1=O)C2=O (stereo not shown) [Pomalidomide] , thanks.
Return: 130

* * *

assay: Approximate solubility of pomalidomide at 50°C in 96 solvent compositions (LC); type: physicochemical; settings: binary solvent mixture (main solvent and co-solvent), 50 °C, organic solvent or mixture, thermodynamic from solid, solvent system F7 of Table 7, read-out: Approximate Measured Solubility
MEASURED ATTRIBUTE: solubility at 2 h (µg/mL)
Give bare numbers, in µg/mL.

Enquiry: Need solubility at 2 h of Nc1cccc2c1C(=O)N(C1CCC(=O)NC1=O)C2=O (stereo not shown) [Pomalidomide] , thanks.
Return: 40

* * *

test: Approximate solubility of pomalidomide at 50°C in 96 solvent compositions (LC); assay type: physicochemical; conditions: binary solvent mixture (main solvent and co-solvent), 50 °C, organic solvent or mixture, thermodynamic from solid, solvent system E9 of Table 7, read-out: Approximate Measured Solubility
MEASURED ATTRIBUTE: solubility at 2 h (µg/mL)
Numbers only, in µg/mL.

Enquiry: Need solubility at 2 h of Nc1cccc2c1C(=O)N(C1CCC(=O)NC1=O)C2=O (stereo not shown) [Pomalidomide] , thanks.
Return: 1630
